- tested_target: plasma purified human antithrombin III (AT-III) in complex with unfractionated heparin (AT-III/UFH)
Give K0.5 for every item shown.

Worked cases, answers included:
The value of K0.5 measured for the protein FIXa D104N/K106S/R318Y/R338E/R403E/E410N (mature FIX numbering) (protein) chain 1: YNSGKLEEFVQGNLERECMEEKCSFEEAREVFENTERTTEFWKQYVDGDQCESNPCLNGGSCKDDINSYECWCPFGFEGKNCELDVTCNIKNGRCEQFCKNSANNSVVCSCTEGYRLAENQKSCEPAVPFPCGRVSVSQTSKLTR chain 2: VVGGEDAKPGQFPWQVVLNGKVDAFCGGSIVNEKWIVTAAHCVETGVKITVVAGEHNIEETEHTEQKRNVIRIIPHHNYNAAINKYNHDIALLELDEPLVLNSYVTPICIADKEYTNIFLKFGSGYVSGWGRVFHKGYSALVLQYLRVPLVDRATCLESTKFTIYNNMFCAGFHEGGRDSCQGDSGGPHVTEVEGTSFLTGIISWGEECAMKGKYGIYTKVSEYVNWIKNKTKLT turned out to be > 10 µM

The value of K0.5 measured for the protein FIXa Y155F/R318Y/R338E/R403E/E410N (mature FIX numbering) (protein) chain 1: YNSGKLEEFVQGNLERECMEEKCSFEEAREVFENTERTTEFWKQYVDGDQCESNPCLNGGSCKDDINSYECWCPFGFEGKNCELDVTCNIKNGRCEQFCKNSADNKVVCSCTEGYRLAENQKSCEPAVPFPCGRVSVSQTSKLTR chain 2: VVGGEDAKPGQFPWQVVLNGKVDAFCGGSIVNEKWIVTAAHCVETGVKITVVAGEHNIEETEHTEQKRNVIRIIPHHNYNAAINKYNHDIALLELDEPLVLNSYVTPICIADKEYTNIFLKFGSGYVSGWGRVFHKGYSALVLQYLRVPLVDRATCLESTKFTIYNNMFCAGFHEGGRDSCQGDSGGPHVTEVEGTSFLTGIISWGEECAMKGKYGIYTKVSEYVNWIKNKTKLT turned out to be > 10 µM

Continuing:
The value of K0.5 measured for the protein FIXa R318Y/R338E/R403E/E410N (mature FIX numbering) (protein) chain 1: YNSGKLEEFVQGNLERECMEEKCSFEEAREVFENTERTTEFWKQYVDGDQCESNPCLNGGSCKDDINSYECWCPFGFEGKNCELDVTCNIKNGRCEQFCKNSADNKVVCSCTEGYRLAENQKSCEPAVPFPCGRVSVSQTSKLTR chain 2: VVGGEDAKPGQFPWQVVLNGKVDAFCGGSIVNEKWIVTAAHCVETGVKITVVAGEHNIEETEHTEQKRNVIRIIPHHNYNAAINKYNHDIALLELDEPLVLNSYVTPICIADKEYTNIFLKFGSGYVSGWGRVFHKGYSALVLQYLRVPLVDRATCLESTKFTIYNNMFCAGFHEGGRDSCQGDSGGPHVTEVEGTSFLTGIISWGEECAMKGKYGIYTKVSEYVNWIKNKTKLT turned out to be 5.88 µM
